assay: Cytotoxicity test by MTT assay; format: cell-based, African green monkey (Cercopithecus aethiops); details: African green monkey (Cercopithecus aethiops), Vero E6 cells (kidney epithelial cells, ATCC #C1008), read-out: 50% cytotoxic concentration (CC50)
MEASUREMENT TYPE: CC50 at 48 h

- COc1cc(O)c2c(c1)O[C@H](c1ccccc1)CC2=O [Pinostrobin]: > 100 µM

Need CC50 at 48 h of CCN(CCO)CCCC(C)Nc1ccnc2cc(Cl)ccc12 (centres unmarked) [Hydroxychloroquine, reference compound] , thanks.
> 100 µM

----------
test system: Vero E6 cells; test: Cytotoxicity test by MTT assay; assay type: cell-based, African green monkey (Cercopithecus aethiops); conditions: 48 h, read-out: 50% cytotoxic concentration (CC50)
MEASUREMENT TYPE: CC50 (µM)
Answers are plain numbers, in µM.

// lookup CC50 for COc1cc(O)c(C(=O)[C@@H]2[C@H](CC=C(C)C)C(C)=CC[C@H]2c2ccccc2)c(O)c1
14.7

Values from patent US20230201158A1
